% inhib of 125I-5C9 IgG binding at 10 µg/mL values, listed per item
molecular target: T1, TSHR coated onto tubes (human, UniProt P16473 21-764, limits assumed); test: TSHR coated tubes, competitor 125I-5C9 IgG
T1 construct: whole entry named; also called TSHR coated tubes; thyrotropin receptor
measured attribute: % inhib of 125I-5C9 IgG binding at 10 µg/mL (%)

| binder | measured |
| --- | --- |
| 14D3 IgG (antibody, V domains shown) VH: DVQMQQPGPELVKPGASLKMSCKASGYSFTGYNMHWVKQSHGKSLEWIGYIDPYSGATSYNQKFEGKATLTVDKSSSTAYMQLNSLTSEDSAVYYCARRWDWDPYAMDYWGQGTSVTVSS VL: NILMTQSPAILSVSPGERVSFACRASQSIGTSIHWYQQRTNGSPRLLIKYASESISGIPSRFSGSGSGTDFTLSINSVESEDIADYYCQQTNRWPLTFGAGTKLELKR | 50.5 |
| 17D2 IgG (antibody, V domains shown) VH: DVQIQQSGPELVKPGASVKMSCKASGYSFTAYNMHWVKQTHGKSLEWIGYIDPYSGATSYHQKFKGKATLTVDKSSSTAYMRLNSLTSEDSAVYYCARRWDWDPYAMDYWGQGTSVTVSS VL: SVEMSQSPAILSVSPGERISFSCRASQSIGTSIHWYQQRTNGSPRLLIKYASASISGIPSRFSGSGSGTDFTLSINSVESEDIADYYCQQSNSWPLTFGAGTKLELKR | 43 |
| 9D33 IgG (antibody, V domains shown) VH: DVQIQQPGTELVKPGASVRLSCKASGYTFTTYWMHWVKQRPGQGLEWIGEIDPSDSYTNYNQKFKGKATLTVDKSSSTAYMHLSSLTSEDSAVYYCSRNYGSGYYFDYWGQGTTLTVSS VL: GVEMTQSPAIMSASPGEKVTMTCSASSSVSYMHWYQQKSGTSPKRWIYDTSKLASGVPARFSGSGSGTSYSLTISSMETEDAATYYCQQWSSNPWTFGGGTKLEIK | 60 |
| 16E5 IgG (antibody, V domains shown) VH: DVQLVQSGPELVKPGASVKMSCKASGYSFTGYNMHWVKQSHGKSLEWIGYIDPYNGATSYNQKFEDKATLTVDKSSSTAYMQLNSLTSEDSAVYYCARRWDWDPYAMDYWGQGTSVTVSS VL: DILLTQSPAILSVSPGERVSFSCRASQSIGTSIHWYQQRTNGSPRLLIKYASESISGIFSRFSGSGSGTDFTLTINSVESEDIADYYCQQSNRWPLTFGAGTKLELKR | 53 |
| 2B4 IgG (antibody, V domains shown) VH: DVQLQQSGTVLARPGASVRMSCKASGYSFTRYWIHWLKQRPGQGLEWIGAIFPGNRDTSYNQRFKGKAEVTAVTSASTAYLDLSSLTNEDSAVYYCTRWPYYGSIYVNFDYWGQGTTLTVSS VL: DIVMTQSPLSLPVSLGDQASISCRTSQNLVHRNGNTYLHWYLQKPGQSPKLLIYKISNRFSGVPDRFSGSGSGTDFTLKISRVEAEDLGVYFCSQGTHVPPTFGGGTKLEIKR | 48 |

Taken from patent US8840891.
